Assay: Solution stability test (residual ratio and generation of active form in buffers of pH 2.0 to 9.0)
Format: physicochemical
Conditions: pH of 3.0, 25° C.
Method: The test compounds were incubated at 25° C. at a concentration of 25 umol/L in a buffer prepared to have a pH of 2.0, 3.0, 5.0, 7.4, and 9.0. The compounds were measured by HPLC after 0, 3, 6, 9, 12, and 24 hours. […] The yield of the Example and Reference Example compounds and active forms is calculated with each of the peak area of the Example and Reference Example compounds at 0 minutes and the peak area upon dissolution of the corresponding active form at 100 umol/L as 100%. […]
Structures can show the parent of a compound that is named as a salt.
Outcome measure: Stability in solution (in words)

compound="CNCCN(C)C(=O)Oc1cc(O)c2c(=O)cc(-c3ccccc3Cl)oc2c1[C@H]1CCN(C)C[C@H]1O [Example 10, ditrifluoroacetate]" outcome_measure="Stability in solution (in words)" value_reported="sufficient stability"
compound="CNCCN(C)C(=O)Oc1cc(O)c([C@H]2CCN(C)C[C@H]2O)c2oc(-c3ccccc3Cl)cc(=O)c12 [Example 11, ditrifluoroacetate]" outcome_measure="Stability in solution (in words)" value_reported=stable
compound="CN1CC[C@H](c2c(O)cc(OC(=O)N(C)CCN)c3c(=O)cc(-c4ccccc4Cl)oc23)[C@H](O)C1 [Example 9, ditrifluoroacetate]" outcome_measure="Stability in solution (in words)" value_reported=stable
compound="CC1(C)CCc2c(OC(=O)NCCNCC(=O)O)c(OC(=O)NCCNCC(=O)O)c3ccccc3c2O1 [Example 4, dihydrochloride]" outcome_measure="Stability in solution (in words)" value_reported="sufficient stability"

What does the record list as Stability in solution (in words) for C[C@H]1COc2c1c(OC(=O)NCCNCC(=O)O)c(OC(=O)NCCNCC(=O)O)c1c3c(ccc21)C(C)(C)CCC3 [Example 12, dihydrochloride] ?
stable

====

test: Solution stability test (residual ratio and generation of active form in buffers of pH 2.0 to 9.0); format: physicochemical; settings: pH9.0 buffer, 25° C., 25 umol/L, 6 hr
Where a name gives a salt, the structure may show the parent alone.
So I've got a bunch of molecules here, and I need their Residual ratio values.

Example cases with answers are listed next.
molecule=CN1CC[C@H](c2c(OC(=O)N(C)CCN)cc(O)c3c(=O)cc(-c4ccccc4Cl)oc23)[C@H](O)C1 outcome_measure="Residual ratio" value_reported=0.2%
molecule="C[C@H]1COc2c1c(OC(=O)NCCCNCC(=O)O)c(OC(=O)NCCCNCC(=O)O)c1c3c(ccc21)C(C)(C)CCC3 [Example 13, dihydrochloride]" outcome_measure="Residual ratio" value_reported=99.4%
molecule=NCCCNC(=O)Oc1c(OC(=O)NCCCN)c(-c2ccccc2)c2c(c1-c1ccccc1)OCO2 outcome_measure="Residual ratio" value_reported=0.7%
molecule="CC(=O)c1cc2c(OC(=O)NCCNCC(=O)O)c3ccsc3c(OC(=O)NCCNCC(=O)O)c2o1 [Example 1, dihydrochloride]" outcome_measure="Residual ratio" value_reported=0.0%

# ---- query molecule ----
State the recorded Residual ratio for this entry: Cc1cc(OC(=O)NCCNCC(=O)O)c2ccccc2c1OC(=O)NCCNCC(=O)O [Example 2, dihydrochloride]
0.0%

====

Would you kindly list Residual ratio for each of these molecules?
experiment: Solution stability test (residual ratio and generation of active form in buffers of pH 2.0 to 9.0); assay type: physicochemical; details: pH9.0 buffer, 25° C., 25 umol/L, 3 hr
Where a name gives a salt, the structure may show the parent alone.
Give bare numbers, in %.

molecule=CN1CC[C@H](c2c(OC(=O)N(C)CCN)cc(O)c3c(=O)cc(-c4ccccc4Cl)oc23)[C@H](O)C1 value_reported=0.2
molecule=NCCCNC(=O)Oc1c(OC(=O)NCCCN)c(-c2ccccc2)c2c(c1-c1ccccc1)OCO2 value_reported=0.4
molecule="CC(=O)c1cc2c(OC(=O)NCCNCC(=O)O)c3ccsc3c(OC(=O)NCCNCC(=O)O)c2o1 [Example 1, dihydrochloride]" value_reported=0.0
molecule="CC(=O)c1cc2c(O)c3c(O)cccc3c(OC(=O)NCCCN)c2o1 [Reference Example 9, hydrochloride]" value_reported=13.7

Proceeding to the next molecule to report its Residual ratio.
Consider the molecule C[C@H]1COc2c1c(OC(=O)NCCCNCC(=O)O)c(OC(=O)NCCCNCC(=O)O)c1c3c(ccc21)C(C)(C)CCC3 [Example 13, dihydrochloride] and give its measured Residual ratio.
99.7
